From: patent US20220332800A1

Below: a set of entries, each annotated with reported OD.
MEASURED TARGET: T1, ZIKV-VLP (Native Antigen Inc.) (Zika virus)
T1 construct: also called Zika VLP; ZVLP
METHOD DESCRIPTION: ELISA, hybridoma supernatant (Abcam data)

BINDER: anti-ZIKV antibody 242-3 (antibody, V domains shown, also called clone 242-3) VH: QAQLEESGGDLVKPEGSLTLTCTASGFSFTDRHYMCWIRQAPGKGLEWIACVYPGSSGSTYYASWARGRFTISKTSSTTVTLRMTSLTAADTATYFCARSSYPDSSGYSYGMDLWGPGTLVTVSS VL: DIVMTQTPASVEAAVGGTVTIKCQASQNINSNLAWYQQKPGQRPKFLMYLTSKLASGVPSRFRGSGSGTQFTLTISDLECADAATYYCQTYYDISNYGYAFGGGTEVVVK
OD: 0.97 OD
//
BINDER: anti-ZIKV antibody 306-2 (antibody, V domains shown) VH: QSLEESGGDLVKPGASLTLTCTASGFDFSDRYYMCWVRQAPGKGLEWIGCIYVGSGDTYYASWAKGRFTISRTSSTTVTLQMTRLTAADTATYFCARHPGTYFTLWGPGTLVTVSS VL: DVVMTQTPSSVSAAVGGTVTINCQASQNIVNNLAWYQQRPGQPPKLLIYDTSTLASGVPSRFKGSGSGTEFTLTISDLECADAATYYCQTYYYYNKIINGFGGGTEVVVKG
OD: 1.15 OD
//
BINDER: anti-ZIKV antibody 270-12 (antibody, V domains shown, also called clone 270-12) VH: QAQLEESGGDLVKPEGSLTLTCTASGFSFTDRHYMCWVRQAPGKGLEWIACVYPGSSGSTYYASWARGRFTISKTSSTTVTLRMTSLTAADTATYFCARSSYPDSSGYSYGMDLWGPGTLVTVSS VL: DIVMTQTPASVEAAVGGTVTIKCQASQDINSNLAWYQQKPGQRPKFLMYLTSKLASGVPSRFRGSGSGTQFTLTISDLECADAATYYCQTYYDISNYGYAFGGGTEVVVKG
OD: 1.27 OD
//
BINDER: anti-ZIKV antibody 78-2 (antibody, V domains shown, also called clone 78-2) VH: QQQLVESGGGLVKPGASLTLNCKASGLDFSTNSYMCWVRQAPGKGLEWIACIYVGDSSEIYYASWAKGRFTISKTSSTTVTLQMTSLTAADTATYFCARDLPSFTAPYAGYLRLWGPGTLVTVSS VL: QPVLTQPPSLSASLGTTARLTCTLRTGYNVGDYPLLWLQRVPGRPPRYLLTYHTEEFKHQGSGVHSRFSGSKDASENAGVLSISGLQPEDEANYYCYTVHATESSLHYVFGGGTQLTVTG
OD: 2.67 OD
//
BINDER: anti-ZIKV antibody 11-3 (antibody, V domains shown, also called clone 11-3) VH: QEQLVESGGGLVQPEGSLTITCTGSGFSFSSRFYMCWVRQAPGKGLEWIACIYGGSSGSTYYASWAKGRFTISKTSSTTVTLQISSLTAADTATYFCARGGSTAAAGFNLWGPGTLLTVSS VL: DVVMTQTPASVSATVGGTVTIKCQASEDIYNLLAWYQQKPGQPPKLLIYYASTLASGVPSRFKGSGSGTEFTLTISDLECADAATYYCQCNDYGGTYVPNAFGGGTEVVVKG
OD: 2.83 OD
//
BINDER: anti-ZIKV antibody 289-3 (antibody, V domains shown, also called clone 289-3; subclone 289-3) VH: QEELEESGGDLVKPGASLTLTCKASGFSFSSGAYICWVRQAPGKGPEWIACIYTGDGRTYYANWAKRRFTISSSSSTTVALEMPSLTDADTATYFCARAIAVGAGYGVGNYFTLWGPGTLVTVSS VL: DIVMTQTPSSVSAAVGGTVTINCHASENIYGYLSWYQQKPGQPPKLLIYKASTLASGVPSRFKGSGAGTQFTLTITALECADAATYYCQSYYTSSSNADGSENAFGGGTEVVVEG
OD: 0.94 OD
